- SYSTEM TESTED: Peroxisome proliferator-activated receptor gamma/Nuclear receptor coactivator 3 (Homo sapiens, UniProt P37231);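 also: agonist potency for raising coactivator recruitment to the receptor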
- Sequence (P37231 whole entry): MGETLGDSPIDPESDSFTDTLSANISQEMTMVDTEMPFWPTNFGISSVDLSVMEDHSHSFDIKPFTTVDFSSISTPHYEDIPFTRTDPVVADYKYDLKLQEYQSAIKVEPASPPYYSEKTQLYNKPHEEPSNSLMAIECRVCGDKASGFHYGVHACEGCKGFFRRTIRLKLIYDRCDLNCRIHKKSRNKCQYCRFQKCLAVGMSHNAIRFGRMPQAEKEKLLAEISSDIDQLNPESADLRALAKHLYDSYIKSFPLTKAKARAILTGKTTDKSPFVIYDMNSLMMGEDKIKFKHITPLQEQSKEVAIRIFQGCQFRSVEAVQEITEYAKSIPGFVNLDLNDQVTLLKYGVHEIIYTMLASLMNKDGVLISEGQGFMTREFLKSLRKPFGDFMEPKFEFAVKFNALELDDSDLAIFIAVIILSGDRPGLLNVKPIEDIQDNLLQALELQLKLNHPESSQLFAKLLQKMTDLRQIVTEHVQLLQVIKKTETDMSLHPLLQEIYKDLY
- Sequence (Q9Y6Q9 whole entry, further chain): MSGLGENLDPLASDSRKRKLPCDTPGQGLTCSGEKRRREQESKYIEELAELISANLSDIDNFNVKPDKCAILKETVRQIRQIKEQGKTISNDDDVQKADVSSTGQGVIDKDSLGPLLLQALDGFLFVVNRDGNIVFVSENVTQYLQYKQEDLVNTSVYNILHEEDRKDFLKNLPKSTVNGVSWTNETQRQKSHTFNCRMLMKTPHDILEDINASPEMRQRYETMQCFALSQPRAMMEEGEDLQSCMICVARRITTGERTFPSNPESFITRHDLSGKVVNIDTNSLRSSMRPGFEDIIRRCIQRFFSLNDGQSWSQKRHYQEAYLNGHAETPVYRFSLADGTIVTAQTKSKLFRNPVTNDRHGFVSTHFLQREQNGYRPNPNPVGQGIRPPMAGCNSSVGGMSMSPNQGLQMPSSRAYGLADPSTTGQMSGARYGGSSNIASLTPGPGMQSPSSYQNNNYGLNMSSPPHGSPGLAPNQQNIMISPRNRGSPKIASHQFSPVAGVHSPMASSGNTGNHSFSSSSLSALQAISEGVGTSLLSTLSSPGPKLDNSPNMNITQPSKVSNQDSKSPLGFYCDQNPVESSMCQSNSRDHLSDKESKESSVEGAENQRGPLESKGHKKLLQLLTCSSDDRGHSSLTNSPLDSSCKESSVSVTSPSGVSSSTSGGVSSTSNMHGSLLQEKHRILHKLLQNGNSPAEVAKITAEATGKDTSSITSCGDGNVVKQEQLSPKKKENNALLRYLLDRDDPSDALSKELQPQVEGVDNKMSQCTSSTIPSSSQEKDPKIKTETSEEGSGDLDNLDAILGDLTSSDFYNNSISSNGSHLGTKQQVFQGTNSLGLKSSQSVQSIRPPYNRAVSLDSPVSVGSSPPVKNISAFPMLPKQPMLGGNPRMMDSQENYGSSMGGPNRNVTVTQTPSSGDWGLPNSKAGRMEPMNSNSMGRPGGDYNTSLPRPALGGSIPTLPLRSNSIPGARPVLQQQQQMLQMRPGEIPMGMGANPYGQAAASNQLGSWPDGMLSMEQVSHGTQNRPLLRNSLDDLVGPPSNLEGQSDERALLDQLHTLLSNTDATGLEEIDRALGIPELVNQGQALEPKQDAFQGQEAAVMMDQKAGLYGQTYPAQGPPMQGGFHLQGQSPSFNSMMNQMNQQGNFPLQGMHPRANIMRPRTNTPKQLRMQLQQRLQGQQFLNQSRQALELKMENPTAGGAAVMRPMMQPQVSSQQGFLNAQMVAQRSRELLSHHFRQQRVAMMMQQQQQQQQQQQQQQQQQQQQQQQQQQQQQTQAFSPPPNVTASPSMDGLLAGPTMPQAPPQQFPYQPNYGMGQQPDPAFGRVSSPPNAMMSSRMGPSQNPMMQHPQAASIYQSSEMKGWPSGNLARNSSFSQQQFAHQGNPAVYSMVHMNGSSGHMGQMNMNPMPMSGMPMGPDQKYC
- Assay type: functional
We begin with a simple list: items and their reported EC50.
METRIC NAME: EC50

COc1ccc(-c2cc(-c3cccs3)c(C#N)c(SCC(=O)NCc3ccccc3OC)n2)cc1 :: 13 µM (not active)
CCOc1cccc2cc(C(=O)Nc3cc(C)on3)c(=O)oc12 :: 30.1 µM (not active)
Cc1nn(-c2ccccn2)c2c1-c1nc(N3CCOCC3)ncc1CC2 :: > 79.4 µM (not active)
O=C(CSc1ncnc2c1nnn2Cc1ccccc1F)N1CCN(c2ccccc2)CC1 :: > 79.4 µM (not active)
CC(OC(=O)c1cc2sccc2n1C)C(=O)NCc1cccs1 (stereo not given) :: > 79.4 µM (not active)
